Values compiled from PubChem BioAssay AID1845197.

- System: 349418-098-R tumor spheroid viability;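 also: spheroids exposed to compound for 7 days before measurement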
- Protocol summary: Anticancer human tumor 349418-098-R patient-derived lung adenocarcinoma cell line growth inhibition; active = viability on the fitted dose curve at most 10% of control; inactive = the rest
- Assay conditions: second compound 30 pM; first compound 0.949 µM; spheroids with HUVEC and MSC
Can you answer with just one of these options? active, inactive

Example entries and their recorded answers appear below.
Compound: Cc1sc2c(c1C)C(c1ccc(Cl)cc1)=NC(CC(=O)Nc1ccc(O)cc1)c1nnc(C)n1-2 (centres undefined) + COc1cc2c(cc1O)CCNC21CSC2c3c(OC(C)=O)c(C)c4c(c3C(COC1=O)N1C(O)C3Cc5cc(C)c(OC)c(O)c5C(C21)N3C)OCO4
Class name: active
--
Compound: O=C(c1cc(Cc2n[nH]c(=O)c3ccccc23)ccc1F)N1CCN(C(=O)C2CC2)CC1 + COc1cc2c(cc1O)CCNC21CSC2c3c(OC(C)=O)c(C)c4c(c3C(COC1=O)N1C(O)C3Cc5cc(C)c(OC)c(O)c5C(C21)N3C)OCO4
Class name: inactive
--
Compound: CNCc1ccc(-c2cc(-c3nc(-c4ccc(S(=O)(=O)C(C)C)cc4)cnc3N)on2)cc1 + COc1cc2c(cc1O)CCNC21CSC2c3c(OC(C)=O)c(C)c4c(c3C(COC1=O)N1C(O)C3Cc5cc(C)c(OC)c(O)c5C(C21)N3C)OCO4
Class name: inactive

Moving on to another compound below.
Prompt line: In this assay, the call recorded for Cn1ncnc1[C@H]1c2n[nH]c(=O)c3cc(F)cc(c23)N[C@@H]1c1ccc(F)cc1 + COc1cc2c(cc1O)CCNC21CSC2c3c(OC(C)=O)c(C)c4c(c3C(COC1=O)N1C(O)C3Cc5cc(C)c(OC)c(O)c5C(C21)N3C)OCO4 was what?
Response line: inactive
